Below, each entry is listed alongside its reported IC50.
Target: D816V Kit (Homo sapiens, UniProt P10721, D816V)
Sequence (P10721 26-976 D816V): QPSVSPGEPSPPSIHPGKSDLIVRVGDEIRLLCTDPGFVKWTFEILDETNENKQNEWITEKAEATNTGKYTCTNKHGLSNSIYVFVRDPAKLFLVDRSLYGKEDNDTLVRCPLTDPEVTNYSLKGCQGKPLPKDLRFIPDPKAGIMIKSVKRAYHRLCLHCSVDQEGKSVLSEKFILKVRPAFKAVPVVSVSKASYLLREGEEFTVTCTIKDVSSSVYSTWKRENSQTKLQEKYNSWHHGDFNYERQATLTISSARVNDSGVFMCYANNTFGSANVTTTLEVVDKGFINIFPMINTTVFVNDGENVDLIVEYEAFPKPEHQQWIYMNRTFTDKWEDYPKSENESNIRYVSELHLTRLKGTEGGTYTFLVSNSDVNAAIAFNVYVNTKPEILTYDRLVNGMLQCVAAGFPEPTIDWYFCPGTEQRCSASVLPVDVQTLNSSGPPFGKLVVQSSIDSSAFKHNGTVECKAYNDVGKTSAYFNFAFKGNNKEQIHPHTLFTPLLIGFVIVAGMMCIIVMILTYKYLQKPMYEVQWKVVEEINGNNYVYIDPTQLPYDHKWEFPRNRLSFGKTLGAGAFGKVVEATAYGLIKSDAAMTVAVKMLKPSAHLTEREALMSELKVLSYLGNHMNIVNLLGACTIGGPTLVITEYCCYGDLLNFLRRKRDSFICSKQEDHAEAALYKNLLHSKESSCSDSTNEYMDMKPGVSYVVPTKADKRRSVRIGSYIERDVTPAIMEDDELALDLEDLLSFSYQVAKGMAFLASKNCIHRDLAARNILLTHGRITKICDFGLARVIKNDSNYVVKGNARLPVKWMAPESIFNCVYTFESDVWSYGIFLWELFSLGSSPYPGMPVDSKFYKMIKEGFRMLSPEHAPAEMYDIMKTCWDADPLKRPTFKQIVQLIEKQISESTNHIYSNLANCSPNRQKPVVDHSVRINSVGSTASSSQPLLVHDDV
Experiment: Kit D816V assay at Km (Caliper electrophoretic mobility shift)
Details: D816V Kit 0.5 nM, 15 uM ATP (Km), 1 uM Srctide, 25 C, 90 minutes; read-out: Biochemical Activity D816V IC50
Source text: In order to assess the activity of chemical compounds against the relevant kinase of interest, the Caliper LifeSciences electrophoretic mobility shift technology platform is used. […] At the end of the reaction, the mix of phosphorylated (product) and non-phosphorylated (substrate) peptides are passed through the microfluidic system of the Caliper EZ Reader 2, under an applied potential difference. […] As the pools pass a LEDS within the instrument, these pools are detected and resolved as separate peaks. […]

Molecule	IC50
Cn1cc(-c2cc3c(-c4ccc(NC(=O)[C@@](C)(N)c5ccc(Cl)cc5)cc4)ncnn3c2)cn1 [Compound 45]	1.01 to 10 nM
CC(C)C(C(=O)Nc1ccc(-c2ncnn3cc(-c4cnn(C)c4)cc23)cc1)c1ccc(Cl)cc1 (stereo not shown) [Compound 58]	10 to 100 nM
CCOC(=O)N1CC=C(c2cc3c(-c4ccc(NS(=O)(=O)c5ccc(Cl)cc5)cc4)ncnn3c2)CC1 [Compound 64]	1.01 to 10 nM
CS(=O)(=O)c1ccc(-c2cc3c(-c4ccc(NS(=O)(=O)c5ccc(Cl)cc5)cc4)ncnn3c2)cc1 [Compound 65]	10 to 100 nM
CN(C)C(C(=O)Nc1ccc(-c2ncnn3cc(-c4cnn(C)c4)cc23)cc1)c1ccc(Cl)cc1 (stereo not shown) [Compound 59]	1.01 to 10 nM
CC(C)Oc1ccc(-c2cc3c(-c4ccc(NS(=O)(=O)c5ccc(Cl)cc5)cc4)ncnn3c2)cc1 [Compound 62]	10 to 100 nM
Cn1cc(-c2cc3c(-c4ccc(NS(=O)(=O)CC5COCCO5)cc4)ncnn3c2)cn1 (stereo not shown) [Compound 25]	10 to 100 nM

----------
target: Kit D816V in HMC1.2 cells (Homo sapiens, UniProt P10721, D816V/V560G); construct: endogenous in cells; assay: HMC1.2 autophosphorylation assay (Kit autophosphorylation at tyrosine 719, AlphaLISA); conditions: HMC1.2 mast cell leukemia cells (Kit V560G and D816V), phospho-Y719 c-Kit, 90 minutes; read-out: Cellular Activity IC50
Sequence (P10721 26-976 V560G/D816V): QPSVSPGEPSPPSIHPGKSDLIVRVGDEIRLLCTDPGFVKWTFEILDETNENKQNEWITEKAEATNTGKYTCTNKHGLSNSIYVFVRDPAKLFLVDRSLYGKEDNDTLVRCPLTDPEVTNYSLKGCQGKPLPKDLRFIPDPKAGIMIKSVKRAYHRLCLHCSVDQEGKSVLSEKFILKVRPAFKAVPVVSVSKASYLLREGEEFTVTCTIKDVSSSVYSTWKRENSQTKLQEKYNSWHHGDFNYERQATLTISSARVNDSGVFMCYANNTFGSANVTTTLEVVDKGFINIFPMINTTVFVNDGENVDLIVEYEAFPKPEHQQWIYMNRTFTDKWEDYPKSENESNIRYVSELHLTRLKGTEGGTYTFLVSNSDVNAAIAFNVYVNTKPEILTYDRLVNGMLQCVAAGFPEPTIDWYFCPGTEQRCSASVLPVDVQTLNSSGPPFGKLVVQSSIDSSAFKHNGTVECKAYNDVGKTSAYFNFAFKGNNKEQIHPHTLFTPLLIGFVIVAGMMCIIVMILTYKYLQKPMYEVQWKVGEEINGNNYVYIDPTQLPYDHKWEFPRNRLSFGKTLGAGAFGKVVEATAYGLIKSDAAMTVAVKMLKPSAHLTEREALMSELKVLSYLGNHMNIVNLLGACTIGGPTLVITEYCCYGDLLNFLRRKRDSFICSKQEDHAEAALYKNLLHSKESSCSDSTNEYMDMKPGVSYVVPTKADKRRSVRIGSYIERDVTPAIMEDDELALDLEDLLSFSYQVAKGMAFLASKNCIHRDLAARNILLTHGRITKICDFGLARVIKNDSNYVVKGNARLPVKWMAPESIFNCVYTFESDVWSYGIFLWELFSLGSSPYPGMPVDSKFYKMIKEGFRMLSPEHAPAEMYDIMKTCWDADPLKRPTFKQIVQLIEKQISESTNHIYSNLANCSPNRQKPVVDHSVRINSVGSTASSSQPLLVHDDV
Quantity Name: IC50

Compound	Quantity Name	Recorded Value
O=S(=O)(Nc1ccc(-c2ncnn3cc(-c4ccc(F)cc4)cc23)cc1)c1ccc(Cl)cc1 [Compound 55]	IC50	1 to 10 µM
CC(C)S(=O)(=O)Nc1ccc(-c2ncnn3cc(-c4cnn(C)c4)cc23)cc1 [Compound 2]	IC50	> 10 µM
CO[C@@H](C(=O)Nc1ccc(-c2ncnn3cc(-c4cnn(C)c4)cc23)cc1)c1ccc(Cl)cc1 [Compound 48]	IC50	< 0.01 µM
Cn1cc(-c2cc3c(-c4ccc(NC(=O)[C@@](C)(O)c5ccc(Cl)cc5)cc4)ncnn3c2)cn1 [Compound 49]	IC50	< 0.01 µM
Cn1cc(-c2cc3c(-c4ccc(NC(=O)[C@H](O)c5ccc(Cl)cc5)cc4)ncnn3c2)cn1 [Compound 32]	IC50	< 0.01 µM
Cn1cc(-c2cc3c(-c4ccc(NC(=O)Cc5ccccc5Cl)cc4)ncnn3c2)cn1 [Compound 19]	IC50	0.1 to 1 µM
Cn1cc(-c2cc3c(-c4ccc(NC(=O)[C@](C)(N)c5ccc(Cl)cc5)cc4)ncnn3c2)cn1 [Compound 46]	IC50	< 0.01 µM
CC(C)(O)Cn1cc(-c2cc3c(-c4ccc(NC(=O)Cc5ccc(Cl)cc5)cc4)ncnn3c2)cn1 [Compound 60]	IC50	0.01 to 0.1 µM

----------
target: D816V Kit (Homo sapiens, UniProt P10721, D816V); test: Kit D816V assay at Km (Caliper electrophoretic mobility shift); details: D816V Kit 0.5 nM, 15 uM ATP (Km), 1 uM Srctide, 25 C, 90 minutes; read-out: Biochemical Activity D816V IC50
pIC50: −log10 of the molar value.
Below: a set of entries, each annotated with reported pIC50.

Smi	pIC50
Cn1cc(-c2cc3c(-c4ccc(NC(=O)[C@](C)(O)c5ccc(Cl)cc5)cc4)ncnn3c2)cn1	7.00 to 8.00
CCC(=O)N1CC=C(c2cc3c(-c4ccc(NS(=O)(=O)c5ccc(Cl)cc5)cc4)ncnn3c2)CC1	> 9.00
Cn1cc(-c2cc3c(-c4ccc(NS(=O)(=O)c5ccc(F)cc5)cc4)ncnn3c2)cn1	8.00 to 9.00
CO[C@H](C(=O)Nc1ccc(-c2ncnn3cc(-c4cnn(C)c4)cc23)cc1)c1ccc(Cl)cc1	7.00 to 8.00
Cn1cc(-c2cc3c(-c4ccc(NS(=O)(=O)c5ccc(Cl)cc5)c(F)c4)ncnn3c2)cn1	7.00 to 8.00
CC[C@@H](C(=O)Nc1ccc(-c2ncnn3cc(-c4cnn(C)c4)cc23)cc1)c1ccc(Cl)cc1	8.00 to 9.00
Cn1cc(-c2cc3c(-c4ccc(NS(=O)(=O)c5ccc(Cl)cc5)cc4F)ncnn3c2)cn1	8.00 to 9.00
